Ref: paper PMC6155732

- protocol-details: Pharmacokinetics of compounds 1–11 in rat plasma (UPLC-TQ/MS) after oral administration of HYD and plus-minus Haizao/Gancao decoctions
- Format: in vivo, Wistar rats (PTU-induced model of hypothyroidism)
- applied-conditions: Wistar, 2 mL/kg, group GH (extract of Gancao and Haizao), 2 mL/kg intragastrically, model rats, n = 6, mean ± S.D.
attribute-measured: half-life (h)
Just the number please, in h, no unit attached.

O=C1C[C@@H](c2ccc(O)cc2)Oc2cc(O)ccc21 4.12

-- ask Dear colleague, please send me the reported half-life for "O=C1C[C@@H](c2ccc(O[C@@H]3O[C@H](CO)[C@@H](O)[C@H](O)[C@H]3O)cc2)Oc2cc(O)ccc21" when you can.
-- reply 1.34

-- ask Check the records and state half-life for "CC1(C)[C@@H](O)CC[C@]2(C)[C@H]3C(=O)C=C4[C@@H]5C[C@@](C)(C(=O)O)CC[C@]5(C)CC[C@@]4(C)[C@]3(C)CC[C@@H]12"
-- reply 1.93

-- ask Report half-life for "CC1(C)[C@@H](O[C@H]2O[C@H](C(=O)O)[C@@H](O)[C@H](O)[C@H]2O[C@@H]2O[C@H](C(=O)O)[C@@H](O)[C@H](O)[C@H]2O)CC[C@]2(C)[C@H]3C(=O)C=C4[C@@H]5C[C@@](C)(C(=O)O)CC[C@]5(C)CC[C@@]4(C)[C@]3(C)CC[C@@H]12"
-- reply 9.94

----------
- protocol-details: Pharmacokinetics of compounds 1–11 in rat plasma (UPLC-TQ/MS) after oral administration of HYD and plus-minus Haizao/Gancao decoctions
- Assay type: in vivo, Wistar rats (PTU-induced model of hypothyroidism)
- applied-conditions: Wistar, 11 mL/kg, group HYD-HZ (HYD minus Haizao), 11 mL/kg intragastrically, model rats, n = 6, mean ± S.D.
Reported Tmax values for a set of compounds
Number in min, nothing else.

-- ask Give the reported value of Tmax for this record: "C[C@@H]1O[C@@H](O[C@H]2[C@H](Oc3cc(O)c4c(c3)O[C@H](c3ccc(O)cc3)CC4=O)O[C@H](CO)[C@@H](O)[C@@H]2O)[C@H](O)[C@H](O)[C@H]1O"
-- reply 30

-- ask Name the recorded Tmax of the compound listed here: "CC1(C)[C@@H](O)CC[C@]2(C)[C@H]3C(=O)C=C4[C@@H]5C[C@@](C)(C(=O)O)CC[C@]5(C)CC[C@@]4(C)[C@]3(C)CC[C@@H]12"
-- reply 720

-- ask Look up and state reported Tmax for "O=C1C[C@@H](c2ccc(O)cc2)Oc2cc(O)ccc21"
-- reply 47.4

----------
Each entry below carries its recorded Cmax.
- protocol-details: Pharmacokinetics of compounds 1–11 in rat plasma (UPLC-TQ/MS) after oral administration of HYD and plus-minus Haizao/Gancao decoctions
- Assay type: in vivo, Wistar rats (PTU-induced model of hypothyroidism)
- applied-conditions: Wistar, 11 mL/kg, group HYD-GC (HYD minus Gancao), 11 mL/kg intragastrically, model rats, n = 6, mean ± S.D.
Your reply should be a number followed by the unit it is expressed in.

compound	Cmax
COc1c2ccoc2cc2oc(=O)ccc12 [Compound 8, bergapten]	183 ng/mL
C[C@@H]1O[C@@H](O[C@H]2[C@H](Oc3cc(O)c4c(c3)O[C@H](c3ccc(O)cc3)CC4=O)O[C@H](CO)[C@@H](O)[C@@H]2O)[C@H](O)[C@H](O)[C@H]1O [Compound 2, naringin]	271 ng/mL
COc1ccc(-c2cc(=O)c3c(OC)c(OC)c(OC)c(OC)c3o2)cc1OC [Compound 9, nobiletin]	501 ng/mL

The record that follows has no Cmax shown yet.
-- ask Dear colleague, please send me the reported Cmax for COc1ccc2ccc(=O)oc2c1CC=C(C)C [Compound 10, osthole] when you can.
-- reply 101 ng/mL
